- measurement-protocol: qHTS of pediatric cancer cell lines to identify multiple opportunities for drug repurposing: Confirmatory screen for RD cells (AID 1347124);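 note: cells exposed to compound for 48 h before viability readout; nearly all actives have a fitted effect of over 65% in size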
- assay-conditions: RD rhabdomyosarcoma cell viability; series mostly up to 97.2 µM
Records with an inconclusive call do not appear. Calls of active or inactive are those of the source. Calls come from the whole dose curve; as a rule, active = well fitted cell-killing curve with a large enough effect; inconclusive = small, poorly fitted or top-dose-only effect, or effect the other way; inactive = no such curve, though single readings can be large or run the other way.
Choose one outcome from this list and give only that: true (1) (active), false (0) (inactive)

// return assay outcome for `N=C1N=C(N)c2cc3ccccc3cc21`
false (0)

Now the molecule `CCCSc1ccc2nc(NC(=O)OC)[nH]c2c1`
true (1)

Now the molecule `COC(=O)c1nc(Cl)c(Cl)nc1N`
true (1)

Now the molecule `[O-][n+]1ccccc1SSc1cccc[n+]1[O-]`
false (0)

Now the molecule `CN(C)c1ccc(C(=C2C=CC(=[N+](C)C)C=C2)c2ccccc2)cc1`
true (1)

====

- measurement-protocol: qHTS Validation Assay to Find Inhibitors of Chronic Active B-Cell Receptor Signaling (AID 485345);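 note: 0% = untreated basal cells and 100% = 10 µM MG-132 proteasome inhibitor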
- assay-conditions: ABC-DLBCL cells, chronic BCR signaling reporter, CBG luciferase; series mostly up to 46.1 µM
Inconclusive results are not listed. Active and inactive are the calls of the source. Calls follow the shape of the dose curve; as a rule, active = well fitted curve in the direction sought with a large enough effect in the main read-out, with a control signal flat (not every such curve was filed as active); inconclusive = small, poorly fitted or top-dose-only effect, or effect the other way, or a change in a side signal; inactive = no such curve, though single readings can be large or run the other way.
metric-name: outcome

Some solved cases for reference:
| compound | outcome |
| --- | --- |
| C[N+]1(C)CCC(OC(=O)C(c2ccccc2)c2ccccc2)CC1 | inactive |
| CN(C)C(N)=NCCC[C@H](N)C(=O)O | inactive |
| O=C(O)[C@@H]1C[C@H](C(=O)O)N1 | inactive |
| Clc1ccc(N2CCN(Cc3cc4ccccn4n3)CC2)cc1 | inactive |
| O=C(O)CNC(=O)C(CS)Cc1ccccc1 (stereo not given) | inactive |

Quick one: outcome for `COc1cc2c(CCNC(C)=O)c[nH]c2cc1Cl` ?
inactive

Now the compound `C[C@@H](CN1CCC(Cc2ccccc2)CC1)[C@@H](O)c1ccc(O)cc1`
inactive

Now the compound `O=c1[nH]c2cc([N+](=O)[O-])c([N+](=O)[O-])cc2[nH]c1=O`
inactive

Now the compound Cc1ccc(C(=O)O[C@H](C(=O)O)[C@@H](OC(=O)c2ccc(C)cc2)C(=O)O)cc1 (tested in a mixture with another compound)
inactive

Now the compound CCCCCCCCCCCCCCCCCCNC(=O)OCC(COP(=O)([O-])OCC[n+]1ccsc1)OC (stereo not given)
inactive

====

- System: HeLa
- measurement-protocol: Primary qHTS to identify gynecologic anti-cancer compounds using libraries of approved drugs and bioactive compounds (AID 1345084); note: nearly all actives have a fitted effect of over 55% in size
- assay-conditions: Gynecologic cancer cell panel viability, ATPlite luminescence, 48 h; series mostly up to 57.5 µM
Records with an inconclusive call do not appear. Calls of active or inactive are those of the source. Calls come from the whole dose curve; as a rule, active = well fitted cell-killing curve with a large enough effect; inconclusive = small, poorly fitted or top-dose-only effect, or effect the other way; inactive = flat fitted curve, though single readings scatter.
metric-name: outcome

Some solved cases for reference:
| compound | outcome |
| --- | --- |
| CN1CC(=O)N/C1=N/C(=O)Nc1cccc(Cl)c1 | inactive |
| CCNC(=O)[C@H]1O[C@@H](n2cnc3c(N)nc(NCCc4ccc(CCC(=O)O)cc4)nc32)[C@H](O)[C@@H]1O | inactive |
| NS(=O)(=O)c1ccc(-n2nc(C(F)(F)F)cc2-c2ccc(Cl)cc2)cc1 | inactive |
| O=C(O)c1cc(O)c(O)c(O)c1 | inactive |
| C[N+]1(C)[C@@H]2CC(OC(=O)[C@H](CO)c3ccccc3)C[C@H]1[C@@H]1O[C@@H]12 (stereo partly specified) | inactive |

Quick one: outcome for `Cc1[nH]cnc1CN1CCc2c(c3ccccc3n2C)C1=O` ?
inactive

Now the compound `NCCO`
inactive

Now the compound `CC(C)OC(=O)c1cc(C(=O)OC(C)C)cc([N+](=O)[O-])c1`
inactive

Now the compound `CC1(C)S[C@@H]2[C@H](NC(=O)[C@H](N)c3ccccc3)C(=O)N2[C@H]1C(=O)O`
inactive

Now the compound CN(C)[C@@H]1C(=O)C(C(=O)NCN2CCCC2)=C(O)[C@@]2(O)C(=O)C3=C(O)c4c(O)cccc4[C@@](C)(O)C3C[C@@H]12 (stereo partly specified)
inactive

Now the compound `COC(=O)C1=C(C)NC(C)=C(C(=O)OC)C1c1cccc(NC(=O)NCCCN2CCC(c3cccc(OC)c3)CC2)c1`
inactive

Now the compound O=C(O)CC1CC(c2ccccc2)=NO1 (stereo unspecified)
inactive

Now the compound C#CC1(O)CC[C@H]2[C@@H]3CCC4=CCCC[C@@H]4[C@H]3CC[C@@]21C (stereo partly specified)
inactive

Now the compound `CCNc1nc2c(ncn2[C@H]2C[C@H](O)[C@@H](CO)O2)c(=O)[nH]1`
inactive

Now the compound `Nc1cc(-c2ccncc2)c[nH]c1=O`
inactive

Now the compound `Nc1ccc([N+](=O)[O-])cc1O`
inactive

Now the compound `CCCCCCCCCCCCCCCC(=O)OC(C)C`
inactive

Now the compound `COc1cccc2c1C(=O)c1c(O)c3c(c(O)c1C2=O)C[C@@](O)(C(=O)CO)C[C@@H]3O[C@H]1C[C@H](N)[C@H](O[C@@H]2CCCCO2)[C@H](C)O1`
inactive

Now the compound `O=C(O)/C=C\C(=O)O`
inactive

Now the compound `NC(=O)C(c1ccccc1)(c1ccccc1)[C@@H]1CCN(CCc2ccc3c(c2)CCO3)C1`
inactive

Now the compound COc1ccnc2c1CCCCC2S(=O)c1nc2ccccc2[nH]1 (stereo unspecified)
inactive
